# assayed-system: beta-catenin/TCF4 engagement (Homo sapiens, UniProt P35222)
# Construct: expressed in transfected cells; host or cells: HEK293
# Sequence (P35222 1-781): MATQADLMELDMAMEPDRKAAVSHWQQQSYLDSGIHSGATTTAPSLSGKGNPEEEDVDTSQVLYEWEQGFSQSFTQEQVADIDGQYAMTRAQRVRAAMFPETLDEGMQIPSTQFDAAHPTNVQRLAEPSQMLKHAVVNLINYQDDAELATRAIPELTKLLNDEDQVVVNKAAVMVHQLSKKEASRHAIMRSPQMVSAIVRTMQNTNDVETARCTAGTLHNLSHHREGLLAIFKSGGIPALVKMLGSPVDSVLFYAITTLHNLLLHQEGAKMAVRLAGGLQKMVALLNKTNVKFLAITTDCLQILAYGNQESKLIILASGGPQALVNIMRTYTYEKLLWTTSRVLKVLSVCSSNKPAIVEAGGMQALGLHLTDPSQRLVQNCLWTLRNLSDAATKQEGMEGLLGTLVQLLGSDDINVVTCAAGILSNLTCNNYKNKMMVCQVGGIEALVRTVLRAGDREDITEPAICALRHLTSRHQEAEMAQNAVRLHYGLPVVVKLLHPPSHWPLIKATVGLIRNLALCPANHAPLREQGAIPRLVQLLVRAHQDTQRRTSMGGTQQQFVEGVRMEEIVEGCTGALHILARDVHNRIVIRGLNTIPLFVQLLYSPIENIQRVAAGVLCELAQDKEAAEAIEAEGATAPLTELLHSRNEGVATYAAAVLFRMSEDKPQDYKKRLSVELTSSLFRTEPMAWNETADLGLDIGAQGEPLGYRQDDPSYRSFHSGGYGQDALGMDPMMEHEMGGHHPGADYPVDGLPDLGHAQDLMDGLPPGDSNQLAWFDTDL
# assay-overview: Nano-BRET target engagement assay (B-cat-Halo & TCF4-Luc in HEK293 cells)
# Type: cell-based
# condition-parameters: absolute IC50; read-out: NanoBRET Abs IC50
pIC50: −log10 of the molar value.
endpoint-name: pIC50

{"columns": ["molecule", "rel", "recorded-number"],
 "data": [
  ["CCN(CC(=O)O)C[C@@H]1NC(=O)[C@H](CC(=O)O)NC(=O)C2(CCCC=CCCCCCC[C@@](C)(C(=O)N[C@@H](Cc3ccsc3)C(=O)N[C@@H](Cc3csc4ccccc34)C(=O)N[C@@H](CCC(N)=O)C(N)=O)NC(=O)[C@H](CC(N)=O)NC(=O)[C@H](Cc3ccccc3)NC(=O)[C@H](C)NC(=O)[C@H](C)NC1=O)CCCC=CC[C@]1(CCCN1C(C)=O)C(=O)N[C@@H](CC(=O)O)C(=O)N[C@@H](CC(C)(C)C)C(=O)N2 (some centres unmarked) [I-1628]", "<", 4.70],
  ["CC(=O)N1CCC[C@]12CC=CCCCC1(CCCC=CCCCOC(=O)N3CC[C@@](C(=O)N[C@@H](Cc4ccccc4C(F)(F)F)C(=O)N[C@@H](Cc4csc5ccccc45)C(=O)N[C@@H](C)C(N)=O)(C3)NC(=O)[C@H](CC(C)C)NC(=O)[C@H](Cc3ccccc3)NC(=O)[C@H](C)NC(=O)[C@H](CCC(N)=O)NC(=O)[C@H](Cn3cc(CC4(C(=O)O)CCCCC4)nn3)NC(=O)[C@H](CC(=O)O)NC1=O)NC(=O)[C@H](CC(C)(C)C)NC(=O)[C@H](CC(=O)O)NC2=O (some centres unmarked)", "=", 5.23]
]}
